Item-by-item account of half-life at 1 µM
- METHOD NOTES: In vitro microsomal metabolic stability, human liver microsomes
- Type: in vitro ADME
- ASSAY SETUP: pH 7.2; Human liver microsomes, 1 μM, 0.5 mg/ml protein, NADPH
Please respond with the number in min and leave the unit unwritten.

COMPOUND	UNIT ANNOTATION	half-life at 1 µM
COCCN(c1ccccc1)C1C[C@@H]2CC[C@@H](C)[C@@](O)(O2)C(=O)C(=O)N2CCCC[C@H]2C(=O)OC([C@H](C)CC2CC[C@@H](O)C(OC)C2)CC[C@H](C)/C=C(\C)C(O)C(OC)C(=O)[C@H](C)C[C@H](C)/C=C/C=C/C=C/1C (some centres unmarked)	min	49

Kindly review the next compound as well.
Query :: Form field: reported half-life at 1 µM of CO[C@@H]1C[C@H](C[C@@H](C)[C@@H]2CC[C@H](C)/C=C(\C)[C@@H](O)[C@@H](OC)C(=O)[C@H](C)C[C@H](C)/C=C/C=C/C=C(\C)C(Nc3ccsc3)C[C@@H]3CC[C@@H](C)[C@@](O)(O3)C(=O)C(=O)N3CCCCC3C(=O)O2)CC[C@H]1O (some centres unmarked)
Result :: 16

----------
- METHOD NOTES: In vitro microsomal metabolic stability, CD-1 mouse liver microsomes
- Format: in vitro ADME
- ASSAY SETUP: CD-1, mouse, mouse liver microsomes, pH 7.2
QUANTITY MEASURED: CLint scaled at 1 µM (mL/min/kg)
Value expressed in mL/min/kg; do not type the unit.

Query :: Need CLint scaled at 1 µM of CO[C@H]1C[C@@H]2CC[C@@H](C)[C@@](O)(O2)C(=O)C(=O)N2CCCC[C@H]2C(=O)O[C@H]([C@H](C)C[C@@H]2CC[C@@H](OCCO)[C@H](OC)C2)CC(=O)[C@H](C)/C=C(\C)[C@@H](O)[C@@H](OC)C(=O)[C@H](C)C[C@H](C)/C=C/C=C/C=C/1C [RAD001, everolimus, reference compound] , thanks.
Result :: 76.9

----------
- METHOD NOTES: In vitro microsomal metabolic stability, human liver microsomes
- Type: in vitro ADME
- ASSAY SETUP: Human liver microsomes, with NADPH, 60 min
Each entry below carries its reported Remaining (T = 60 min).
Provide only the numeric value, understood in %.

COMPOUND	QUANTITY MEASURED	UNIT ANNOTATION	RESULT
CO[C@@H]1C[C@H](C[C@@H](C)[C@@H]2CC[C@H](C)/C=C(\C)[C@@H](O)[C@@H](OC)C(=O)[C@H](C)C[C@H](C)/C=C/C=C/C=C(\C)C(Nc3ccc(C)cc3)C[C@@H]3CC[C@@H](C)[C@@](O)(O3)C(=O)C(=O)N3CCCCC3C(=O)O2)CC[C@H]1O (stereo partly drawn)	Remaining (T = 60 min)	%	15
CO[C@@H]1C[C@H](C[C@@H](C)[C@@H]2CC[C@H](C)/C=C(\C)[C@@H](O)[C@@H](OC)C(=O)[C@H](C)C[C@H](C)/C=C/C=C/C=C(\C)C(NS(=O)(=O)c3cnoc3C)C[C@@H]3CC[C@@H](C)[C@@](O)(O3)C(=O)C(=O)N3CCCCC3C(=O)O2)CC[C@H]1O (stereo partly drawn)	Remaining (T = 60 min)	%	0.20

Below: the item to evaluate.
Query :: Param item = CO[C@H]1C[C@@H]2CC[C@@H](C)[C@@](O)(O2)C(=O)C(=O)N2CCCC[C@H]2C(=O)O[C@H]([C@H](C)C[C@@H]2CC[C@@H](OCCO)[C@H](OC)C2)CC(=O)[C@H](C)/C=C(\C)[C@@H](O)[C@@H](OC)C(=O)[C@H](C)C[C@H](C)/C=C/C=C/C=C/1C [RAD001, everolimus, reference compound] ; retrieve measured Remaining (T = 60 min).
Result :: 2.10

----------
- METHOD NOTES: In vitro microsomal metabolic stability, CD-1 mouse liver microsomes
- Assay type: in vitro ADME
- ASSAY SETUP: Mouse liver microsomes, with NADPH, 60 min
The entries below are paired with their reported Remaining (T = 60 min).
Could you give me the number in %? Just the number is fine.

COMPOUND	UNIT ANNOTATION	Remaining (T = 60 min)
CCOc1cccc(NC2C[C@@H]3CC[C@@H](C)[C@@](O)(O3)C(=O)C(=O)N3CCCCC3C(=O)O[C@H]([C@H](C)C[C@@H]3CC[C@@H](O)[C@H](OC)C3)CC[C@H](C)/C=C(\C)[C@@H](O)[C@@H](OC)C(=O)[C@H](C)C[C@H](C)/C=C/C=C/C=C/2C)c1 (stereo partly shown)	%	76
CO[C@@H]1C[C@H](C[C@@H](C)[C@@H]2CC[C@H](C)/C=C(\C)[C@@H](O)[C@@H](OC)C(=O)[C@H](C)C[C@H](C)/C=C/C=C/C=C(\C)C(NS(=O)(=O)c3cnoc3C)C[C@@H]3CC[C@@H](C)[C@@](O)(O3)C(=O)C(=O)N3CCCCC3C(=O)O2)CC[C@H]1O (stereo partly shown)	%	15
COCCN(c1ccccc1)C1C[C@@H]2CC[C@@H](C)[C@@](O)(O2)C(=O)C(=O)N2CCCC[C@H]2C(=O)OC([C@H](C)CC2CC[C@@H](O)C(OC)C2)CC[C@H](C)/C=C(\C)C(O)C(OC)C(=O)[C@H](C)C[C@H](C)/C=C/C=C/C=C/1C (stereo partly shown)	%	113

Query :: Remaining (T = 60 min) lookup needed for CO[C@@H]1C[C@H](C[C@@H](C)[C@@H]2CC[C@H](C)/C=C(\C)[C@@H](O)[C@@H](OC)C(=O)[C@H](C)C[C@H](C)/C=C/C=C/C=C(\C)C(Nc3cccc(OC(F)(F)F)c3)C[C@@H]3CC[C@@H](C)[C@@](O)(O3)C(=O)C(=O)N3CCCCC3C(=O)O2)CC[C@H]1O (stereo partly shown) , thanks.
Result :: 83

----------
# half-life at 1 µM listing for each entry below
- METHOD NOTES: In vitro microsomal metabolic stability, human liver microsomes
- Format: in vitro ADME
- ASSAY SETUP: pH 7.2; Human liver microsomes, 1 μM, 0.5 mg/ml protein, NADPH
Please state the figure in min; there is no need to write the unit.

COMPOUND	RESULT
CO[C@@H]1C[C@H](C[C@@H](C)[C@@H]2CC[C@H](C)/C=C(\C)[C@@H](O)[C@@H](OC)C(=O)[C@H](C)C[C@H](C)/C=C/C=C/C=C(\C)C(Nc3ccc(Cl)cc3)C[C@@H]3CC[C@@H](C)[C@@](O)(O3)C(=O)C(=O)N3CCCCC3C(=O)O2)CC[C@H]1O (stereo partly shown) [Compound 48]	33

Query :: For CCOc1cccc(NC2C[C@@H]3CC[C@@H](C)[C@@](O)(O3)C(=O)C(=O)N3CCCCC3C(=O)O[C@H]([C@H](C)C[C@@H]3CC[C@@H](O)[C@H](OC)C3)CC[C@H](C)/C=C(\C)[C@@H](O)[C@@H](OC)C(=O)[C@H](C)C[C@H](C)/C=C/C=C/C=C/2C)c1 (stereo partly shown) [Compound 59] , what is its reported half-life at 1 µM?
Result :: 56.2

Query :: // same read-out, input: COc1cccc(NC2C[C@@H]3CC[C@@H](C)[C@@](O)(O3)C(=O)C(=O)N3CCCCC3C(=O)O[C@H]([C@H](C)C[C@@H]3CC[C@@H](O)[C@H](OC)C3)CC[C@H](C)/C=C(\C)[C@@H](O)[C@@H](OC)C(=O)[C@H](C)C[C@H](C)/C=C/C=C/C=C/2C)c1 (stereo partly shown) [Compound 44]
Result :: 17.4

Query :: Another compound to check: CO[C@@H]1C[C@H](C[C@@H](C)[C@@H]2CC[C@H](C)/C=C(\C)[C@@H](O)[C@@H](OC)C(=O)[C@H](C)C[C@H](C)/C=C/C=C/C=C(\C)C(NS(=O)(=O)c3cnoc3C)C[C@@H]3CC[C@@H](C)[C@@](O)(O3)C(=O)C(=O)N3CCCCC3C(=O)O2)CC[C@H]1O (stereo partly shown) [Compound 51]
Result :: 6.86

----------
Quick reference for CLint scaled at 1 µM among some compounds
- METHOD NOTES: In vitro microsomal metabolic stability, human liver microsomes
- Format: in vitro ADME
- ASSAY SETUP: human, human liver microsomes, pH 7.2
Could you kindly put the unit after your number?

COMPOUND	RESULT
CO[C@@H]1C[C@H](C[C@@H](C)[C@@H]2CC[C@H](C)/C=C(\C)[C@@H](O)[C@@H](OC)C(=O)[C@H](C)C[C@H](C)/C=C/C=C/C=C(\C)C(Nc3ccc(C)cc3)C[C@@H]3CC[C@@H](C)[C@@](O)(O3)C(=O)C(=O)N3CCCCC3C(=O)O2)CC[C@H]1O (some centres unmarked) [Compound 49]	59.6 mL/min/kg

Note: attention shifts to another entry.
Query :: Please look up its CLint scaled at 1 µM: COc1cccc(NC2C[C@@H]3CC[C@@H](C)[C@@](O)(O3)C(=O)C(=O)N3CCCCC3C(=O)O[C@H]([C@H](C)C[C@@H]3CC[C@@H](O)[C@H](OC)C3)CC[C@H](C)/C=C(\C)[C@@H](O)[C@@H](OC)C(=O)[C@H](C)C[C@H](C)/C=C/C=C/C=C/2C)c1 (some centres unmarked) [Compound 44]
Result :: 71.7 mL/min/kg
